Tested on: T-47D breast
Experiment notes: NCI-60 one-dose screen, 48 h
Conditions used: 10 µM unless noted
Compounds without any hit were thinned out: in the full panel of roughly 83,000, 20% have a hit. Activity calls are given as the source filed them. The calls were made as follows: active = growth percent below 10; inactive = the rest.
Outcome codes: 1 (yes) for active, 0 (no) for inactive

{"columns": ["Smi", "Label class"],
 "data": [
  ["COc1ccc(-c2nc3ccccn3c2/C=C/C(=O)c2cc(OC)c(OC)c(OC)c2)cc1OC", "1 (yes)"],
  ["Cn1cc(-c2noc(-c3cn(C)c4ncc(Br)cc34)n2)c2cc(Cl)ccc21", "0 (no)"],
  ["CCc1ccc(NC(=O)N[C@@H](Cc2cc(F)cc(F)c2)C(=O)N[C@@H]2C(=O)N3C[C@H](O)C[C@H]3C(=O)N3CCOC[C@H]3C(=O)N[C@@H](C)C(=O)N3C[C@H](C)C[C@H]3C(=O)O[C@H]2C)cc1", "0 (no)"],
  ["Fc1ccc(NC(=S)c2ccccc2)cc1", "0 (no)"],
  ["CC(C)=CC/C=C(/C)[C@H]1CC[C@]2(C)[C@@H]1CC[C@@H]1[C@@]3(C)CCC(=O)NC(C)(C)[C@@H]3CC[C@]12C", "1 (yes)"]
]}

====

System: UACC-62 melanoma
Experiment notes: NCI-60 one-dose screen, 48 h
Conditions used: 10 µM unless noted
The panel holds about 83,000 compounds, 20% with a hit somewhere; the sample as a whole holds those more often. Calls of active or inactive are those of the source. How the source made its calls: active means growth percent below 10; inactive means the rest.
Outcome codes: true (1) for active, false (0) for inactive

{"columns": ["Smi", "Label class"],
 "data": [
  ["Cc1cc(SC#N)ncn1", "false (0)"],
  ["CCCC[C@@H](C=O)NC(=O)[C@H](CC(C)C)NC(=O)[C@H](CC(C)C)NC(=O)OCc1ccccc1", "true (1)"],
  ["COc1ccc2nc3ccccc3c(NCCNCCO)c2c1", "true (1)"],
  ["CC(C)CCNCC(C)(C)O", "false (0)"],
  ["COC(=O)c1cc2c(=O)[nH]cc3c2c(n1)CCC3", "false (0)"],
  ["Cn1cc(-c2noc(-c3cn(C)c4ncc(F)cc34)n2)c2ccccc21", "false (0)"],
  ["CCOC(=O)COc1c(C)cc(SSc2cc(C)c(OCC(=O)OCC)c(C)c2)cc1C", "false (0)"],
  ["C=C(C)[C@@H]1CC[C@]2(c3ncc(C)o3)CC[C@]3(C)[C@H](CC[C@@H]4[C@@](C)(CCC#N)[C@H](C(=C)C)CC[C@]43C)[C@@H]12", "true (1)"],
  ["C=C(C)[C@@H]1CC[C@]2(C)[C@H](C(=O)C=C3[C@@H]4C[C@](C)(C(=O)N5CCN(C)CC5)CC[C@]4(C)CC[C@]32C)[C@@]1(C)CCC#N", "true (1)"],
  ["CC1(C)CC[C@]2(C(=O)O)CC[C@]3(C)C(=CC[C@@H]4[C@@]5(C)C/C(=C/c6ccco6)C(=O)C(C)(C)[C@@H]5CC[C@]43C)[C@@H]2C1", "true (1)"]
]}

====

Test system: NCI-H226 lung
Experiment notes: NCI-60 one-dose screen, 48 h
Conditions used: 10 µM unless noted
This is part of a sample that, as a whole, favours compounds with a hit. Of some 83,000 tested, about 20% had one in any assay. The source made the active and inactive calls. The calls were made as follows: active = growth percent below 10; inactive = the rest.
Outcome codes: active, inactive

{"columns": ["Compound", "Label class"],
 "data": [
  ["O=C(N/N=C/c1c(Cl)cccc1Cl)c1cccc(Nc2ccnc(C(F)(F)F)c2)c1", "inactive"],
  ["O=C(Oc1ccc(Cl)cc1[N+](=O)[O-])Oc1ccc(Cl)cc1[N+](=O)[O-]", "inactive"],
  ["COc1cc(/C=C/C(=O)/C=C/c2ccc(-n3ccnc3)cc2)ccc1O", "inactive"],
  ["N#CC1C(=O)NC(c2ccccc2[N+](=O)[O-])c2sc3c(F)cccc3c21 (centres undefined)", "active"],
  ["CC(=O)Nc1ccc(C=Nc2ccc3ccccc3c2)cc1", "inactive"],
  ["CCCN1CC(c2ccc(OC)c(OC)c2)=C(c2cn(C(=O)OCC)c3ccccc23)C1=O", "inactive"],
  ["OC(c1ccc(Cl)cc1)(c1ccc(Cl)cc1)C(O)(c1ccc(Cl)cc1)c1ccc(Cl)cc1", "inactive"],
  ["COc1cc2c(O)n(CCCN3CCOCC3)c3c4cnc5cccc(c(=O)c3c2cc1OC)c54", "inactive"],
  ["CC(C)=CC/C=C(/C)[C@H]1CC[C@]2(C)[C@@H]1CC[C@@H]1[C@@]3(C)CCC(=O)NC(C)(C)[C@@H]3CC[C@]12C", "active"],
  ["Nc1cccc2c1C(=O)c1cccc(NC(=O)c3ccccc3)c1C2=O", "inactive"],
  ["COc1ccc2c(c1)c(-c1noc(C(=O)c3cn(C)c4ncc(Br)cc34)n1)cn2C", "inactive"],
  ["NC1=NC(=O)NC1(c1ccccc1)c1ccccc1", "inactive"],
  ["CC(C)=CC/C=C(/C)[C@H]1CC[C@]2(C)[C@@H]1CC[C@@H]1[C@@]3(C)CCCNC(C)(C)[C@@H]3CC[C@]12C", "active"],
  ["[2H]C1([2H])CCN(C(=O)C2CC2)c2cc(NS(=O)(=O)c3ccc(-c4cccc(C(N)=O)c4)cc3)ccc21", "inactive"],
  ["O=C1NC(=O)C(Cc2ccc(OCc3ccc(-c4cc(F)c(F)c(F)c4)cc3)cc2)S1 (centres undefined)", "inactive"],
  ["N#C/C(=C(/O)CCCO)c1nc2ccccc2c(=O)[nH]1", "inactive"],
  ["CSc1nc2c(c(=O)n1C)C1(C(=O)N(Cc3ccccc3)c3ccccc31)c1c(nc(SC)n(C)c1=O)N2", "inactive"],
  ["COc1ccc(-c2cc(-c3ccccc3)nc(SCCCCCC(=O)NO)n2)cc1", "inactive"],
  ["CCN(CC)CCSC(=O)C(O)(c1ccccc1)C1CCCC1 (centres undefined)", "inactive"]
]}
